organism: Canis familiaris; experiment: Duration for the antiarrhythmic activity was measured; type: functional, Canis lupus familiaris, Heart
Experimental readout: Duration (min)
Reply numerically in min, unit not repeated.

Please review the following examples before continuing.
# Line notation, Duration [min]
rows = [
    ("CNC(=O)Nc1c(OCCCN2CCCC2)c(OC)c2occc2c1OC", 20),
    ("COc1c(NC(=O)OC(C)C)c(OCCN2CCCCC2)c(OC)c2occc12", 10),
    ("CCCN(CCC)CCOc1c(NC(=O)NC)c(OC)c2ccoc2c1OC", 5),
]

Next molecule, Duration to be filled in.
`COc1c(NC(=O)N(C)C)c(OCCN2CCCCC2)c(OC)c2occc12` has a reported Duration of 40

----------
assay: Toxicity was estimated in mouse as LD50 by intravenous administration; LD50 = 200(30%); format: organism-based; details: in vivo
Experimental readout: LD50 (mg/kg)
Respond numerically; units are mg/kg and should not be typed.

Item: `COc1c(NC(C)=O)c(OCCN2CCN(C)CC2)c(OC)c2occc12` | LD50: 200

----------
assay: Toxicity estimated in mouse as LD50 by intravenous administration; format: organism-based; conditions: in vivo
Experimental readout: LD50
Report as: number unit

# Line notation, LD50
data = [
    ("CNC(=O)Nc1c(OCCNC(C)C)c(OC)c2occc2c1OC", "49 mg/kg"),
    ("CNC(=O)Nc1cc2ccoc2cc1OCCN1CCCCC1", "67 mg/kg"),
    ("CNS(=O)(=O)Nc1c(OCCN2CCCCC2)c(OC)c2occc2c1OC", "39 mg/kg"),
    ("COc1c(NC=O)c(OCCN2CCCCC2)c(OC)c2occc12", "46 mg/kg"),
    ("CNCCOc1c(NC(=O)NC)c(OC)c2ccoc2c1OC", "67 mg/kg"),
]

Read the next record carefully.
The molecule listed as `CNC(=O)Nc1c(OCCN2CCCCC2)c(OC)c2occc2c1OC(C)C` has a reported LD50 of 11 mg/kg

----------
test system: Canis familiaris; test: Activity against ouabain-induced ventricular arrhythmia was measured as percent of sinus rhythm recovery at dose of 2 mg/kg iv; type: functional, Canis lupus familiaris, Cardiac ventricle
Experimental readout: SRR (%)
Dear colleague, please return just the value in %, with no unit written.

# Molecule, Unit name, Readout value
data = [
    ("CCNC(=O)Nc1c(OCCN2CCCCC2)c(OC)c2occc2c1OC", "%", 100),
    ("CNC(=O)Nc1c(OCCN2CCCC2)c(OC)c2occc2c1OC [CAROCAINIDE]", "%", 100),
    ("CNC(=O)Nc1c(OCCN2CCCCCC2)c(OC)c2occc2c1OC", "%", 100),
    ("CCN(CC)CCOc1c(NC(=O)NC)c(OC)c2ccoc2c1OC", "%", 100),
    ("CNC(=O)Nc1c(OCC(C)N2CCCCC2)c(OC)c2occc2c1OC (configuration not stated)", "%", 100),
]

I looked up `CNC(=O)N(C)c1c(OCCN2CCCCC2)c(OC)c2occc2c1OC` and its SRR for Canis familiaris was 100

The molecule CNC(=O)Nc1c(OCCN2CCCCC2)c(OC)c2occc2c1OC [MUROCAINIDE] , tested on Canis familiaris, showed SRR of 100

----------
assay: Toxicity estimated in mouse as LD50 by intravenous administration; assay type: organism-based; settings: in vivo
Experimental readout: log10 of LD50 (log10 of the value in mg/kg)
# log10 transformed; quantity=LD50; unit=mg/kg

Example compounds with recorded log10 of LD50:
# Compound, Experimental readout, Readout value
rows = [
    ("COc1c(NC(C)=O)c(OCCNC2CCCCC2)c(OC)c2occc12", "log10 of LD50", 1.06),
    ("CNC(=O)Nc1c(OCCN2CCN(C)CC2)c(OC)c2occc2c1OC", "log10 of LD50", 2.16),
    ("CNC(=O)Nc1c(OC(C)CN2CCCCC2)c(OC)c2occc2c1OC (stereo unspecified)", "log10 of LD50", 1.36),
    ("CNC(=O)Nc1c(OC)ccc(OC)c1OCCN1CCCCC1", "log10 of LD50", 2.13),
    ("CCCN(CCC)CCOc1c(NC(=O)NC)c(OC)c2ccoc2c1OC", "log10 of LD50", 1.72),
    ("COc1c(NC(C)=O)c(OCCN2CCCCCC2)c(OC)c2occc12", "log10 of LD50", 1.52),
    ("CCCCNC(=O)Nc1c(OCCN2CCCCC2)c(OC)c2occc2c1OC", "log10 of LD50", 1.34),
    ("CN/C(S)=N/c1c(OCCN2CCCCC2)c(OC)c2occc2c1OC", "log10 of LD50", 1.23),
    ("CCN(CC)CCOc1c(NC(=O)NC)c(OC)c2ccoc2c1OC", "log10 of LD50", 1.87),
    ("CNC(=O)Nc1c(OCCN2CCCCCCC2)c(OC)c2occc2c1OC", "log10 of LD50", 1.15),
]

Input CNC(=O)Nc1c(OCCN2CCCC2)c(OC)c2occc2c1OC [CAROCAINIDE] . Output log10 of LD50: 1.94

----------
species: Canis familiaris; experiment: Duration for the sinus rhythm recovery was measured; assay type: functional, Canis lupus familiaris
Experimental readout: Duration (min)
Note: unit min is implicit; provide only the numeric part.

These solved cases illustrate the format of a correct answer.
# Compound, Experimental readout, Readout value
records = [
    ("C=C[C@H]1CN2CC[C@H]1C[C@@H]2[C@@H](O)c1ccnc2ccc(OC)cc12", "Duration", 60),
    ("CNC(=O)Nc1c(OCC(C)N2CCCCC2)c(OC)c2occc2c1OC (stereo not given)", "Duration", 60),
]

We now examine a further compound.
What the record says about `COc1c(NC(=O)N(C)C)c(OCCN2CCCCC2)c(OC)c2occc12` : Duration is 60
